The measured values listed here are drawn from paper PMC4336329.

Target: human ether-à-go-go-related gene (hERG) potassium channel (human);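 further: peak tail current of the secondary pulse compared with the same well before compound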
Experiment: primary screen, population patch clamp on CHO cells stably expressing hERG; higher = less effect of the substance
Hit rate of the full screen: of about 310,000 compounds, about 14,000 (4.5%) showed an effect of 50% or more. Effects have a minus sign here. Many of the other results were omitted from the sample, so strong results are more common in it than they were.
Readings of hERG current change (%, negative = inhibition) at 10uM for the listed molecules
# value in %; strip the unit string

In the examples that follow, each entry is paired with its recorded hERG current change (%, negative = inhibition) at 10uM.
* O=c1c2[nH]c3ccccc3c2ncn1CCN1CCOCC1 | 4.87
* COc1cc(CN2CCN(C(=O)c3ccccc3F)CC2)cc(OC)c1OC.O=C(O)C(=O)O | 6.56
* Cc1nn(C)c(C(=O)N/N=C/c2cc3c(cc2Br)OCO3)c1Br | 11.2
* O=c1c2[nH]c3ccc(F)cc3c2ncn1CCCN1CCOCC1 | -31.3
* COc1cc(OC)c(OC)cc1CN1CCN(Cc2ccc(C(F)(F)F)cc2)CC1 | -42.3

Q: Report hERG current change (%, negative = inhibition) at 10uM for `COc1cc(CN2CCN(S(=O)(=O)c3ccc(F)cc3)CC2)cc(OC)c1OC.O=C(O)C(=O)O`
A: -5.89

Q: Report hERG current change (%, negative = inhibition) at 10uM for `COCCN(C(=O)CSc1nc2ccc(Cl)cc2[nH]1)c1c(N)n(Cc2ccccc2)c(=O)[nH]c1=O`
A: -7.02

Q: Report hERG current change (%, negative = inhibition) at 10uM for `O=c1c2[nH]c3ccccc3c2ncn1CCN1CCNCC1`
A: 4.97

----------
Biological target: human ether-à-go-go-related gene (hERG) potassium channel (human, UniProt Q12809);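 further: peak tail current of the secondary pulse compared with the same well before compound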
Sequence (Q12809 whole entry, looked up): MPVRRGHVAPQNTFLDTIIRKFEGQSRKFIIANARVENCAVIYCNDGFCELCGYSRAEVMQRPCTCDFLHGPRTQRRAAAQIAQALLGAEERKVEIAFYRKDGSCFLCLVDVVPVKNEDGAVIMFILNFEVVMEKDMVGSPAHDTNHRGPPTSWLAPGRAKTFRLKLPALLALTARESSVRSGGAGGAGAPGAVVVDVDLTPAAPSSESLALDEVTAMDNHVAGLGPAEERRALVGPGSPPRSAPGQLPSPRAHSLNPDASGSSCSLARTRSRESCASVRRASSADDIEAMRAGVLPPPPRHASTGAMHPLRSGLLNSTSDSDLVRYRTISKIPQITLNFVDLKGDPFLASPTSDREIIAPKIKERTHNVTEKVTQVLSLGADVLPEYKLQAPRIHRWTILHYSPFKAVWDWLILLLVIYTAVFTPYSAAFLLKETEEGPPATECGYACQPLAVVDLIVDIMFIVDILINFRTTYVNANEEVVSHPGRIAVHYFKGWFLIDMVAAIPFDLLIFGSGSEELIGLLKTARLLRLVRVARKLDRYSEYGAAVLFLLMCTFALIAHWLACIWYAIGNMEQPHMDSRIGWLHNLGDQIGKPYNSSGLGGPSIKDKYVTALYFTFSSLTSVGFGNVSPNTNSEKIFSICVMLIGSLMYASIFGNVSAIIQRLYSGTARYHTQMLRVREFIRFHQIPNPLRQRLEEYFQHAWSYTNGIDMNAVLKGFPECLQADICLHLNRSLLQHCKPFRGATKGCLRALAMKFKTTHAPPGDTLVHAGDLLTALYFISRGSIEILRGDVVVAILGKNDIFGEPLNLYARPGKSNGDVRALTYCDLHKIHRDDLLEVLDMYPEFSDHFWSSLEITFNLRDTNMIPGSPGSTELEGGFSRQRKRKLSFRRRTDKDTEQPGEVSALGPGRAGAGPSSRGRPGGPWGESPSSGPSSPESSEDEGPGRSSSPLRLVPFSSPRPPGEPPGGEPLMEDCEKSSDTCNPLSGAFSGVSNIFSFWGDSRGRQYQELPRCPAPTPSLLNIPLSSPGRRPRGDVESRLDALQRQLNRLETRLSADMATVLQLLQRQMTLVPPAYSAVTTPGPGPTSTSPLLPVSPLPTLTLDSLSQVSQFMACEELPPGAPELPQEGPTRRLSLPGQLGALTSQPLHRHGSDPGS
Assay: primary screen, population patch clamp on CHO cells stably expressing hERG; higher = less effect of the substance
The campaign covered roughly 310,000 compounds. About 14,000 (4.5%) showed an effect of 50% or more. The effect is printed as a negative number. The list comes from a sample in which strong results are over-represented; it also holds close analogues and randomly drawn compounds.
Readings of hERG current change (%, negative = inhibition) at 10uM for the listed compounds
# value in %; strip the unit string

In the examples that follow, each entry is paired with its recorded hERG current change (%, negative = inhibition) at 10uM.
• CCN1CCN(C(=O)N(c2ccccc2)c2ccccc2)CC1 = 11.9
• Cc1ccc(NC(=O)c2ccco2)c(NC(=O)c2ccccc2C)c1 = 17.9
• Br.C=CCN1C2=NCCCN2c2ccccc21 = -13.9
• COc1ccccc1CCC(=O)N1CCC(n2nccc2NC(=O)C2CCOC2)CC1 (stereo not shown) = 23.1
• C[C@@H](CO)NC(=O)c1ccc2c3n(nc2c1)-c1ccc(Cl)cc1CO3 = -1.96

Q: Report hERG current change (%, negative = inhibition) at 10uM for `COc1ccc(C(=O)Nc2ccc(Cl)cc2C(=O)NCCN2CCOCC2)cc1`
A: -12.3

Q: Report hERG current change (%, negative = inhibition) at 10uM for `Cn1nc(C(F)(F)F)c(-c2ccccc2)c1NC(=O)CSCC(=O)O`
A: 12.2

Q: Report hERG current change (%, negative = inhibition) at 10uM for CCC(Sc1nc(C)cc(=O)[nH]1)C(=O)Nc1sc2c(c1C#N)CCCC2 (stereo not shown)
A: -19.1

Q: Report hERG current change (%, negative = inhibition) at 10uM for Cc1ccccc1CC1(CO)CCCN(C(=O)c2cc(Cl)ccc2F)C1 (stereo not shown)
A: -16.5

Q: Report hERG current change (%, negative = inhibition) at 10uM for `COc1ccc(C(=O)Nc2ccc(Cl)cc2C(=O)NCCO)cc1`
A: -53.8

Q: Report hERG current change (%, negative = inhibition) at 10uM for `COc1ccc(C(=O)Nc2ccc(Cl)cc2C(=O)NCc2ccco2)cc1`
A: -0.702

Q: Report hERG current change (%, negative = inhibition) at 10uM for `COc1ccc(NC(=O)c2ccccc2NC(=O)c2ccco2)cc1`
A: 18.5

Q: Report hERG current change (%, negative = inhibition) at 10uM for `CSc1ccc(/C=C(/NC(=O)c2ccccc2)C(=O)NCCN2CCOCC2)cc1`
A: -44.8

Q: Report hERG current change (%, negative = inhibition) at 10uM for `CCOCCCNC(=O)c1cc(Nc2ccc(OC)cc2OC)nc2ccccc12`
A: -7.58

Q: Report hERG current change (%, negative = inhibition) at 10uM for CCC(C)N(CC(=O)NCc1ccc(OC)cc1)C(=O)c1csnn1 (stereo not shown)
A: -18.3

Q: Report hERG current change (%, negative = inhibition) at 10uM for `Br.CC(C)(C)c1ccc(CN2C3=NCCCN3c3ccccc32)cc1`
A: -77.6

Q: Report hERG current change (%, negative = inhibition) at 10uM for `CCCNC(=O)c1ccc(N2CCC3(CC2)CC(c2ccc(Cl)cc2)=NO3)c([N+](=O)[O-])c1`
A: -74.7

Q: Report hERG current change (%, negative = inhibition) at 10uM for `COc1ccc(OC)c(NC(=O)c2ccccc2NC(=O)c2ccco2)c1`
A: -75.6

Q: Report hERG current change (%, negative = inhibition) at 10uM for Cc1ccccc1CC1(CO)CCCN(C(=O)c2ccccc2N(C)C)C1 (stereo not shown)
A: -1.63
